# Test system: LOX IMVI melanoma
# Assay details: NCI-60 one-dose screen, 48 h (100 = growth as untreated, 0 = no growth, -100 = all killed)
# Condition summary: 10 µM unless noted
Compounds without any hit were thinned out: in the full panel of roughly 83,000, 20% have a hit.
Quantity: growth (%)
Reply with just the number (in %).

Please review the entries below; each comes with its answer.
Smiles code	growth [%]
N#Cc1c(-c2ccc(Cl)cc2)nc(SCC(=O)NC2=NN=C(c3ccccc3)CS2)[nH]c1=O	69.5
CCN1CC(=O)N(/N=C2\C(=O)Nc3ccccc32)C1=S	86.5

Read off the recorded growth for O=C1/C(=C/c2ccc(Cl)cc2)COc2ccc(O)cc21
-42.6

Specify measured growth for CCCCNC(=O)Oc1ccc(/C(=C(/CC)Cc2ccccc2)c2ccc(OCCN3CCCCCC3)cc2)cc1 .
-93.6

---

# Test system: SF-295 CNS
# Assay details: NCI-60 one-dose screen, 48 h
# Condition summary: 10 µM unless noted
About 83,000 compounds went through this panel and 20% of them were active in at least one assay; those are over-represented in the sample as a whole. Activity calls are given as the source filed them. How the source made its calls: active means growth percent below 10; inactive means the rest.
Pick one: active, inactive

Here's what some known entries look like.
Smiles code	Tgt	Class
CCn1c(=S)sc2c(Nc3ccc(F)cc3)nc(-c3cccnc3)nc21	SF-295 CNS	inactive
COc1cc(-c2nc(SCCC(C)C)nc(Nc3ccccc3Cl)c2C#N)cc(OC)c1OC	SF-295 CNS	inactive
Nc1c(C(=O)Nc2ccncc2)sc2nc3c(cc12)CCCCCC3	SF-295 CNS	inactive
COc1ccc(Cc2cc(-c3ccccc3)nn(Cc3ccccc3)c2=O)cc1OC	SF-295 CNS	inactive
CN1C(=O)/C(=C/c2cn(-c3ccccc3)nc2-c2ccccc2)SC1=S	SF-295 CNS	inactive
CO[C@H]1/C=C(/C)CCC[C@H](C)[C@H](O)[C@@H](C)C(=O)C(C)(C)[C@@H](O)CC(=O)O[C@@H]1/C(C)=C/c1csc(C)n1	SF-295 CNS	active
Cn1cc(-c2nonc2-c2c[nH]c3ccc(Br)cc23)c2cc(Br)ccc21	SF-295 CNS	inactive
CCCCCCCCCCCCCCCCCCOc1ccccc1CC(=O)NCC[N+]1(C)CCCC1	SF-295 CNS	inactive

Next up:
Check the results log: what was the call for O=C(Cn1c(-c2ccc([N+](=O)[O-])cc2)nc2ccccc21)NNC(=O)c1cccnc1 ?
inactive

---

# System: UACC-62 melanoma
# Assay details: NCI-60 one-dose screen, 48 h
# Condition summary: 10 µM unless noted
About 83,000 compounds went through this panel and 20% of them were active in at least one assay; those are over-represented in the sample as a whole. Calls of active or inactive are those of the source. How the source made its calls: active means growth percent below 10; inactive means the rest.
Your answer must be one of the following: active, inactive

Short answer needed: outcome of this test for Cc1ccc(Sc2nnc(/N=C3\C(=O)Nc4ccccc43)s2)cc1 ?
inactive

Write down the call the test reported for this compound. Item: Cc1nc2sc(C(=O)Nc3cccc(Cl)c3C)c(N)c2cc1C(=O)c1ccccc1
inactive

Assay result, entry COC(=O)[C@]1(C)CCC[C@]2(C)[C@H]3C[C@H]4C(C(C)C)=C[C@]3(CC[C@H]21)[C@H]1[C@@H]4[C@@H](OCCC#N)CC[C@@H]1OCCC#N — outcome?
inactive

Please let me know the test result on file for CCOC(=O)c1ccc2[nH]c(O)c(C(=Nc3ccc(N(C)C(=O)CN4CCN(C)CC4)cc3)c3ccccc3)c2c1 .
inactive

Record lookup: outcome of this test for COc1ccc(-c2nn(-c3ccccc3)cc2/C=C2/SC(=S)N(C)C2=O)cc1 ?
inactive
